Hey, just so you know, these numbers are from the NIST ThermoML archive (doi:10.1016/j.fluid.2009.08.017).

# test: activity coefficient (dimensionless); of the first substance listed, at infinite dilution; xn = mol fraction of the nth substance listed
# conditionInfo: 328.15 K; 101 kPa; Liquid; Chromatography; x1 = 0
activity coefficient by entry:
recordedMetric: activity coefficient

- CCO [ethanol] + CCCCCCOCn1cc[n+](C)c1.O=S(=O)([N-]S(=O)(=O)C(F)(F)F)C(F)(F)F: 1.2
- C1CCCCCCC1 [cyclooctane] + CCCCCCOCn1cc[n+](COCCCCCC)c1.O=S(=O)([N-]S(=O)(=O)C(F)(F)F)C(F)(F)F: 2.82
- C1CCOC1 [tetrahydrofuran] + CCCCCCOCn1cc[n+](COCCCCCC)c1.O=S(=O)([N-]S(=O)(=O)C(F)(F)F)C(F)(F)F: 0.324
- CCCCCCCCCC [decane] + CCCCCCOCn1cc[n+](COCCCCCC)c1.O=S(=O)([N-]S(=O)(=O)C(F)(F)F)C(F)(F)F: 6.38
- CCOCC [diethyl ether] + CCCCCCOCn1cc[n+](COCCCCCC)c1.O=S(=O)([N-]S(=O)(=O)C(F)(F)F)C(F)(F)F: 0.854
- Cc1ccc(C)cc1 [1,4-dimethylbenzene] + CCCCCCOCn1cc[n+](COCCCCCC)c1.O=S(=O)([N-]S(=O)(=O)C(F)(F)F)C(F)(F)F: 0.952
- C#CCCCCCC [1-octyne] + CCCCCCOCn1cc[n+](COCCCCCC)c1.O=S(=O)([N-]S(=O)(=O)C(F)(F)F)C(F)(F)F: 1.66
- C=CCCCCCC [oct-1-ene] + CCCCCCOCn1cc[n+](COCCCCCC)c1.O=S(=O)([N-]S(=O)(=O)C(F)(F)F)C(F)(F)F: 3.05
- C1CCCCCC1 [cycloheptane] + CCCCCCOCn1cc[n+](C)c1.O=S(=O)([N-]S(=O)(=O)C(F)(F)F)C(F)(F)F: 5.49
- C1CCCCC1 [cyclohexane] + CCCCCCOCn1cc[n+](C)c1.O=S(=O)([N-]S(=O)(=O)C(F)(F)F)C(F)(F)F: 4.63
